target: human TYK2 (JH2domain-pseudokinase) (Homo sapiens (Human)); test: TYK2 JH2 Domain Binding Assay (KINOMEscan, DiscoveRx); conditions: 11-point dilution, duplicate
measuredEndpoint: Kd

| molecule | Kd |
| --- | --- |
| Cc1cc(Nc2cc(Nc3ccc(C4CCCCO4)cc3S(C)(=O)=O)c3nc(C(F)F)[nH]c3n2)nc(C)n1 (stereo not shown) [I-366] | < 0.1 nM |
| Cc1csc(-c2ccc(Nc3cc(Nc4cnc(C)c(C)n4)nc4[nH]c(C(F)F)nc34)c(S(C)(=O)=O)c2)n1 [I-463] | 1 to 10 nM |
| COc1cc(-c2cncn2C)ccc1Nc1cc(NC(=O)C2CC2)nc2[nH]c(C)nc12 [I-151] | 1 to 10 nM |

In the following, a different molecule is considered.
Ask: If you can, please state the reported Kd value of CS(=O)(=O)c1cc(C2CCC2)ccc1Nc1cc(NC(=O)C2CC2)nc2[nH]c(C(F)F)nc12 [I-220] .
Result: 1 to 10 nM

----------
Attribute: Kd
target: human TYK2 (JH2domain-pseudokinase) (Homo sapiens (Human), UniProt P29597); experiment: TYK2 JH2 Domain Binding Assay (KINOMEscan, DiscoveRx); conditions: 11-point dilution, duplicate
Sequence (P29597 556-888): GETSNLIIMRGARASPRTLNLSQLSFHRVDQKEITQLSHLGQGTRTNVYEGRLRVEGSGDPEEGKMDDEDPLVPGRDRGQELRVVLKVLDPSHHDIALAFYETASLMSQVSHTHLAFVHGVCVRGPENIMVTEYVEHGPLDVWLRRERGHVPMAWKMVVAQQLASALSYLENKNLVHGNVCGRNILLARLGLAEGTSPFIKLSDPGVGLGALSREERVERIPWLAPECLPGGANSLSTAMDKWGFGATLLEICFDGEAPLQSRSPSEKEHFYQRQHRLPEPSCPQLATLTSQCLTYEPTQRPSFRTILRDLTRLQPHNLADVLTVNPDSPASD

// solved cases for Kd follow
| molecule | Kd |
| --- | --- |
| Cc1nc2c(Nc3ccc([C@@H]4CCCCO4)cc3S(C)(=O)=O)cc(NC(=O)[C@H]3CC3(F)F)nc2[nH]1 [I-278] | 0.1 to 0.5 nM |
| Cc1cc(Nc2cc(Nc3ccc(-c4cc(C)n(C)n4)cc3S(C)(=O)=O)c3nc(C(F)F)[nH]c3n2)nc(C)n1 [I-519] | 0.1 to 0.5 nM |
| Cc1cc(Nc2cc(Nc3ccccc3N(C)S(C)(=O)=O)c3nc(C(F)F)[nH]c3n2)nc(C)n1 [I-45] | 0.1 to 0.5 nM |

Continue with the next molecule.
Ask: Name the recorded Kd for COc1c(Nc2cc(NC(=O)C3CC3)nc3[nH]c(C)nc23)cccc1-c1nnn(C)c1C [I-158] .
Result: > 10 nM

----------
# Kd per record follows
target: human TYK2 (JH2domain-pseudokinase) (Homo sapiens (Human), UniProt P29597); assay: TYK2 JH2 Domain Binding Assay (KINOMEscan, DiscoveRx); settings: 11-point dilution, duplicate

| molecule | Kd |
| --- | --- |
| COc1c(Nc2cc(Nc3cnc(C)c(C#N)n3)nc3[nH]c(C)nc23)cccc1-c1nnn(C)n1 | 1 to 10 nM |
| COc1c(Nc2cc(Nc3cc4c(nn3)CCC4)nc3[nH]c(C(F)F)nc23)cccc1-c1cnn(C)n1 | 0.1 to 0.5 nM |
| CN=S(C)(=O)c1ccccc1Nc1cc(NC(=O)C2CC2)nc2[nH]c(C(F)F)nc12 (stereo not shown) | 0.1 to 0.5 nM |
| Cc1nc2c(Nc3ccc(C4CCC4)cc3S(C)(=O)=O)cc(NC(=O)[C@H]3CC3(F)F)nc2[nH]1 | > 10 nM |
| COc1c(Nc2cc(Nc3cncc(C#N)n3)nc3[nH]c(C(F)F)nc23)cccc1-c1nnn(C)n1 | 1 to 10 nM |

Ask: Can you look up the measured Kd of CN(c1cc([C@H]2CCCCO2)ccc1Nc1cc(NC(=O)C2CC2)nc2[nH]c(C(F)F)nc12)S(C)(=O)=O for me?
Result: 0.1 to 0.5 nM

Ask: Endpoint output: Kd of Cc1nc2c(Nc3ccc(Cl)cc3N(C)S(C)(=O)=O)cc(Nc3cnc(C)c(C)n3)nc2[nH]1 . Value?
Result: 0.5 to 1 nM

----------
molecular target: human TYK2 (JH2domain-pseudokinase) (Homo sapiens (Human), UniProt P29597); assay: TYK2 JH2 Domain Binding Assay (KINOMEscan, DiscoveRx); conditions: 11-point dilution, duplicate
pKd: −log10 of the molar value.
Property: pKd; scope: individual molecules

Ask: Recorded pKd for Cc1nc2c(Nc3ccc(-c4cc(C)n(C)n4)cc3S(C)(=O)=O)cc(Nc3cnc(C)c(C)n3)nc2[nH]1 , please?
Result: > 10.00

Ask: State the recorded pKd for this entry: Cc1nc(-c2ccc(Nc3cc(Nc4cnc(C)c(C)n4)nc4[nH]c(C)nc34)c(N(C)S(C)(=O)=O)c2)n(C)n1
Result: < 8.00

Ask: If you can, please state the reported pKd value of Cc1nc2c(Nc3ccc([C@@H]4CCCO4)cc3S(C)(=O)=O)cc(NC(=O)[C@@H]3CC3(F)F)nc2[nH]1 .
Result: 9.30 to 10.00

Ask: Any idea what pKd was measured for Cc1cn(C)nc1-c1ccc(Nc2cc(NC(=O)[C@@H]3CC3(C)C)nc3[nH]c(C(F)F)nc23)c(S(C)(=O)=O)c1 ?
Result: 8.00 to 9.00

Ask: I'd like to know its pKd. The molecule in question is COc1c(Cl)cccc1Nc1cc(NC(=O)C2CC2)nc2[nH]c(C(F)F)nc12
Result: < 8.00

Ask: # lookup: pKd of Cc1nc2c(Nc3ccc(C4CCC4)cc3S(C)(=O)=O)cc(NC(=O)[C@H]3C[C@H]3F)nc2[nH]1
Result: 9.00 to 9.30

Ask: What measured pKd goes with CP(C)(=O)c1ccccc1Nc1cc(NC(=O)C2CC2)nc2[nH]c(C(F)F)nc12 ?
Result: 9.00 to 9.30

Ask: Bench note: what pKd did Cc1nc2c(Nc3ccc([C@H]4CCCCO4)cc3S(C)(=O)=O)cc(Nc3cc4n(n3)CCOC4)nc2[nH]1 show?
Result: 9.30 to 10.00

----------
target: human TYK2 (JH2domain-pseudokinase) (Homo sapiens (Human), UniProt P29597); assay: TYK2 JH2 Domain Binding Assay (KINOMEscan, DiscoveRx); settings: 11-point dilution, duplicate
# key: entry, value: Kd

# count of solved cases: 5
| compound | assayedTarget | Kd |
| --- | --- | --- |
| Cc1nc2c(Nc3ccc(Cl)cc3S(C)(=O)=O)cc(NC(=O)C3CC3)nc2[nH]1 | human TYK2 (JH2domain-pseudokinase) (Homo sapiens (Human), UniProt P29597) | 0.1 to 0.5 nM |
| Cc1nc2c(Nc3ccccc3N(C(F)F)S(C)(=O)=O)cc(Nc3cccc(C#N)n3)nc2[nH]1 | human TYK2 (JH2domain-pseudokinase) (Homo sapiens (Human), UniProt P29597) | 1 to 10 nM |
| Cc1nc2c(Nc3ccc(C4CCCCO4)cc3S(C)(=O)=O)cc(NC(=O)C3CC3)nc2[nH]1 (centres unmarked) | human TYK2 (JH2domain-pseudokinase) (Homo sapiens (Human), UniProt P29597) | < 0.1 nM |
| Cc1c(-c2ccc(Nc3cc(Nc4cccc(C#N)n4)nc4[nH]c(C(F)F)nc34)c(S(C)(=O)=O)c2)cnn1C | human TYK2 (JH2domain-pseudokinase) (Homo sapiens (Human), UniProt P29597) | 0.1 to 0.5 nM |
| COc1c(Nc2cc(Nc3cncc(C#N)n3)nc3[nH]c(C(F)F)nc23)cccc1-c1ccn(C)n1 | human TYK2 (JH2domain-pseudokinase) (Homo sapiens (Human), UniProt P29597) | 1 to 10 nM |

Ask: Would you kindly share the measured Kd for COc1c(Nc2cc(Nc3ccc(C(C)C)c(C#N)n3)nc3[nH]c(C(F)F)nc23)cccc1-c1nnn(C)n1 ?
Result: 1 to 10 nM

Ask: Fill blank: measured Kd of the compound Cc1nc2c(Nc3ccc(-c4nn(C)cc4C)cc3S(C)(=O)=O)cc(NC(=O)[C@@H]3CC3(C)C)nc2[nH]1 is ____.
Result: 1 to 10 nM

Ask: So what does the record say about Kd for Cc1nc2c(Nc3ccc(C4CCC4)cc3S(C)(=O)=O)cc(NC(=O)C3CC3(F)F)nc2[nH]1 (centres unmarked) ?
Result: 1 to 10 nM

----------
Entries and their measured Kd follow.
target: human TYK2 (JH2domain-pseudokinase) (Homo sapiens (Human)); experiment: TYK2 JH2 Domain Binding Assay (KINOMEscan, DiscoveRx); settings: 11-point dilution, duplicate

| compound | Kd |
| --- | --- |
| Cc1nc2c(Nc3ccc([C@@H]4CCOC4)cc3S(C)(=O)=O)cc(NC(=O)C3CC3)nc2[nH]1 [I-291] | 0.5 to 1 nM |

Ask: Entry Cc1nc2c(Nc3ccc(-c4cnn(C)c4)cc3N(C)S(C)(=O)=O)cc(NC(=O)[C@H]3C[C@H]3F)nc2[nH]1 [I-269] has what Kd?
Result: 0.1 to 0.5 nM

----------
target: human TYK2 (JH2domain-pseudokinase) (Homo sapiens (Human)); assay: TYK2 JH2 Domain Binding Assay (KINOMEscan, DiscoveRx); conditions: 11-point dilution, duplicate
Listed next: entries and their corresponding Kd.

Would you please look over these solved cases?
| entrySmiles | Kd |
| --- | --- |
| COc1c(Nc2cc(Nc3ccc(N4CCCC4=O)c(C#N)n3)nc3[nH]c(C)nc23)cccc1-c1nnn(C)n1 | 0.1 to 0.5 nM |
| Cc1nc(-c2ccc(Nc3cc(NC(=O)C4CC4)nc4[nH]c(C(F)F)nc34)c(S(C)(=O)=O)c2)c(C)s1 | 0.1 to 0.5 nM |

Ask: What measured Kd goes with Cc1nc2c(Nc3ccc(-c4cn(C)cn4)cc3S(C)(=O)=O)cc(NC(=O)[C@@H]3CC3(F)F)nc2[nH]1 ?
Result: 1 to 10 nM

Ask: Quick check: Kd of Cc1cn(C)nc1-c1ccc(Nc2cc(NC(=O)[C@H]3CC3(C)C)nc3[nH]c(C(F)F)nc23)c(S(C)(=O)=O)c1 ?
Result: 1 to 10 nM

Ask: Quick check: Kd of Cc1ccc(Nc2cc(Nc3cnc(C)c(C)n3)nc3[nH]c(C(F)F)nc23)c(N(C)S(C)(=O)=O)c1 ?
Result: > 10 nM

Ask: Any idea what Kd was measured for Cc1cc(-c2ccc(Nc3cc(NC(=O)[C@H]4CC4(F)F)nc4[nH]c(C(F)F)nc34)c(S(C)(=O)=O)c2)nn1C ?
Result: 1 to 10 nM

Ask: Need Kd of Cc1ccc(Nc2cc(Nc3ccc(-c4cc(C)n(C)n4)cc3S(C)(=O)=O)c3nc(C(F)F)[nH]c3n2)nc1C#N , thanks.
Result: 0.5 to 1 nM

meta.source: patent US10647713B2
